Subject of test: T1, human B7-H3 (4Ig-B7-H3 variant) (Homo sapiens, UniProt Q5ZPR3)
T1 construct: His tag (6xHis) (C)
T1 sequence (Q5ZPR3 with tags, fused parts or gaps): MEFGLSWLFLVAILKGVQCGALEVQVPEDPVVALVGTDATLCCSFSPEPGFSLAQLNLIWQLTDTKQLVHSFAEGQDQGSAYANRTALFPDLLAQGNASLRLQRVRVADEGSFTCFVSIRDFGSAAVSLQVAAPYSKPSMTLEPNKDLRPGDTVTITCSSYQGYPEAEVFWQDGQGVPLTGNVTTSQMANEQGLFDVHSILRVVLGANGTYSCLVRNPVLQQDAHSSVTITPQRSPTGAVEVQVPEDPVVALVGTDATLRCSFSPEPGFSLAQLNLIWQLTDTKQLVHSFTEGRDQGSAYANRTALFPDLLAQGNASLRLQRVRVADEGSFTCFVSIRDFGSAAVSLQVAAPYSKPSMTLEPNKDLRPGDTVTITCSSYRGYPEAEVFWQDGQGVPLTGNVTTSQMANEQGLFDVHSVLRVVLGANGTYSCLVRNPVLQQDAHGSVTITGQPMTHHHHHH
Assay explanation: Biacore T200 SPR binding kinetics, mAb capture, soluble ECD of human B7-H3
Test settings: 1:1 binding model
Value kind: ka (1/Ms) huB7-H3 (M⁻¹ s⁻¹)
Numbers only; they are read as M⁻¹ s⁻¹.

Example cases with answers are listed next.
Molecule	Value kind	Value observed
Ab8: murine anti-B7-H3 mAbs; mouse hybridoma derived (antibody, V domains shown) VH: EVKLVESGGGLVKPGGSLKLSCAASGFTFSSYGMSWVRQTPEKRLEWVATISGGGNYTYCPDSVKGRFTISRDNAKNNLYLQMSSLRSEDTALYYCTRQRGYDYHYAMDFWGQGTSVTVSS VL: DIQMTQSPASLSVSVGETVTITCRASENIYSNLAWHQQKQGKSPQLLVYAATNLADGVPSRFSGNGSDTQYSLKINSLQSEDFGSYFCQNFWGTSWTFGGGTKLEIK	ka (1/Ms) huB7-H3	58000
Ab12: murine anti-B7-H3 mAbs; mouse hybridoma derived (antibody, V domains shown) VH: EVQLVESGGGLVKPGGSLKLSCAASGFTFSSYAMSWVRQTPEKRLEWVATISSGTNYTYYPDSVKGRFTISRDNAKNTLYLQMTSLRSEDTAMYYCARQGRYSWIAYWGQGTLVTVSA VL: DIVLTQSPASLAVSLGQRATISCRASKSVSTSDYSYMHWNQQKPGQPPKLLIYLASNLESGVPARFSGSGSGTDFTLNIHPVEEEDAATYYCQHSRELLTFGAGTKLELK	ka (1/Ms) huB7-H3	38000
Ab17: mouse hybridoma derived anti-B7-H3 monoclonal antibodies (mAbs) (antibody, V domains shown) VH: EVKLVESGGGLVQPGGSLKLSCAASGFTFSSYIMSWVRQTPEKRLEWVASIVSSNITYYPDSMKGRFTISRDNARNILYLQMSSLKSEDTAMYYCARSGTRAWFAYWGQGTLVTVSA VL: DIVLTQSPASLAVSLGQRATISCRASKSVSTSAYSYMHWYQQKPGQPPKLLIYLASNLESGVPARFSGSGSGTDFTLNIHPVEEEDAATYYCQHSRELPYTFGGGTKLEIK	ka (1/Ms) huB7-H3	540000
Ab2: mouse hybridoma derived anti-B7-H3 monoclonal antibodies (mAbs) (antibody, V domains shown) VH: QVQLQQPGAELVKPGASVKLSCKASGYTFTSYWMHWVKQRPGQGLEWIGMIHPDSGTTNYNEKFRSKATLTVDKSSSTAYMQLSSLTSEDSAVYYCAVYYGSTYWYFDVWGTGTTVTVSS VL: DVVMTQTPLSLPVSLGDQAYISCRSSQSLVHINGNTYLHWYRQKPGQSPKLLIYKVSNRFSGVPDRFSGSGSGTDFTLKISRVEAEDLGVYFCSQSTHFPFTFGSGTKLEIK	ka (1/Ms) huB7-H3	120000

Consider the additional molecule presented here.
### Prompt Entry Ab18: the murine monoclonal Ab18 (antibody, V domains shown) VH: QVQLQQSAAELARPGASVKMSCKASGYSFTSYTIHWVKQRPGQGLEWIGYINPNSRNTDYNQKFKDETTLTADRSSSTAYMQLISLTSEDSAVYYCARYSGSTPYWYFDVWGAGTTVTVSS VL: QIVLTQSPAILSASPGEKVTMTCRASSSVSYMNWYQQKPGSSPKPWIYATSNLASGVPARFSVSVSGTSHSLTISRVEAEDAATYYCQQWSSNPLTFGAGTKLELK has what ka (1/Ms) huB7-H3?
### Response 210000
